system: RAW-Dual (murine macrophage reporter line); assay: NF-kB reporter (SEAP) activity fold change vs agonist alone; higher = enhanced NF-kB activity; details: modulator concentration 10 µM; agonist: MPLA […]
Reported Metric: NF-kB reporter
Give bare numbers.

Compound	Numeric Value
CC(=O)Nc1nnc(S(N)(=O)=O)s1	1.07

Could you report NF-kB reporter for every entry in the following list?
1. O=C1CCC(=O)N1CC(O)Cn1c2ccc(Cl)cc2c2cc(Cl)ccc21 (stereo unspecified)
2. CC(C)(C)C1=CC2(C=C(C(C)(C)C)C1=O)Nc1cccc3cccc(c13)N2
3. COC(=O)c1cc(OC)c(=O)c2c(OC)c(OC)ccc2c1
4. CC(/C=C1\SC(=S)N(CC(=O)O)C1=O)=C\c1ccccc1
5. CC1CCC2C(C)(C)C3CC12CCC3(C)O (stereo unspecified)
6. CCn1nnc2c(NCCc3c[nH]c4ccccc34)ncnc21
7. C[C@@H](O)[C@H]1C(=O)N2C(C(=O)O)=C(SCCNC=N)C[C@H]12.O

Reply text:
1. 0.896
2. 0.96
3. 0.931
4. 1.05
5. 0.965
6. 1.09
7. 0.981

----------
system: RAW-Dual (murine macrophage reporter line); experiment: NF-kB reporter (SEAP) activity fold change vs agonist alone; higher = enhanced NF-kB activity; conditions: modulator concentration 10 µM; agonist: LPS 0.1 ug/mL
Reported Metric: NF-kB reporter
Answers are plain numbers.

# annotated cases, reported NF-kB reporter shown
Compound	NF-kB reporter
COc1ccc2cc1Oc1ccc(cc1)C[C@H]1c3c(cc4c(c3Oc3cc5c(cc3OC)CCN(C)[C@@H]5C2)OCO4)CCN1C	1.09
COCc1cc(C)nc2sc(C(=O)c3cccc([N+](=O)[O-])c3)c(N)c12	0.719
CC1(C)CCCC2(C)C1CCC1(C)OC(=O)CC12 (stereo not given)	0.669
COC(=O)CSc1nc(O)c2c(C)c(C)sc2n1	0.829

# next compound below
Inquiry: Query NF-kB reporter on RAW-Dual (murine macrophage reporter line) for CCCCSc1nnc2c(n1)OC(c1cccc(O)c1)Nc1ccc(Br)cc1-2 (stereo not given)
Reply text: 0.954

----------
For each of the compounds below, state its NF-kB reporter.
tested on: RAW-Dual (murine macrophage reporter line); test: NF-kB reporter (SEAP) activity fold change vs agonist alone; higher = enhanced NF-kB activity; conditions: modulator concentration 10 µM; agonist: LPS 0.1 ug/mL
Numbers only.

Compound	Assayed Target	NF-kB reporter
C=CCNC(N)=S	RAW-Dual (murine macrophage reporter line)	1

Could you report NF-kB reporter for every entry in the following list?
1. N=C(N)NCCN1CCCCCCC1.O=S(=O)(O)O
2. N[C@@H](CC(=O)N1CCn2c(nnc2C(F)(F)F)C1)Cc1cc(F)c(F)cc1F
3. O=C(CCCC(=O)Nc1ccc(Cl)c(Cl)c1)Nc1ccc(Cl)c(Cl)c1
4. COc1cc2nc(N3CCN(C(=O)C4CCCO4)CC3)nc(N)c2cc1OC.Cl (stereo unspecified)

Reply text:
1: 1.11; 2: 0.989; 3: 1.02; 4: 0.98

Inquiry: Look up NF-kB reporter for this compound: CC[C@@]1(O)C(=O)OCc2c1cc1n(c2=O)Cc2cc3c(CN(C)C)c(O)ccc3nc2-1
Reply text: 1.27

----------
tested on: RAW-Dual (murine macrophage reporter line); assay: NF-kB reporter (SEAP) activity fold change vs agonist alone; higher = enhanced NF-kB activity; details: modulator concentration 10 µM; agonist: MPLA […]
Reported Metric: NF-kB reporter
Give bare numbers.

# annotated cases, reported NF-kB reporter shown
Compound	Assayed Target	Reported Metric	Numeric Value
Cl.O=C1Cc2cc(CCN3CCN(c4nsc5ccccc45)CC3)c(Cl)cc2N1	RAW-Dual (murine macrophage reporter line)	NF-kB reporter	0.85
COc1ccccc1C=C(C#N)c1nc(-c2cc3cc(Br)ccc3oc2=O)cs1	RAW-Dual (murine macrophage reporter line)	NF-kB reporter	0.943
O=C1NC(=O)[C@@H](c2cn3c4c(cccc24)CCC3)[C@@H]1c1c[nH]c2ccccc12	RAW-Dual (murine macrophage reporter line)	NF-kB reporter	1.12
Clc1cccc(C=Cc2nn3c(Cc4ccccc4)nnc3s2)c1	RAW-Dual (murine macrophage reporter line)	NF-kB reporter	1.12
CN(C)C=C1C(=O)N(c2nc3ccccc3s2)N=C1CSc1ccc(Cl)cc1	RAW-Dual (murine macrophage reporter line)	NF-kB reporter	0.916

Could you report NF-kB reporter for every entry in the following list?
1. Cc1c(C)c2c(c(C)c1O)CCC(C)(C(=O)O)O2 (stereo not given) [Prestw-530]
2. CN1C2CCCC1CC(NC(=O)c1nn(C)c3ccccc13)C2.Cl (stereo not given)
3. COc1ccc(OC)c(-c2csc(NC(=O)C3CC3)n2)c1

Reply text:
1. 0.98
2. 0.984
3. 1

----------
system: RAW-Dual (murine macrophage reporter line); assay: viability score (confluency relative to resting cells, overnight) (fraction); higher = more viable, active = viable (0.7 or more); conditions: modulator concentration 10 µM
Reported Metric: viability score
Give bare numbers.

# annotated cases, reported viability score shown
Compound	Numeric Value
O=C(Cn1ccnc1[N+](=O)[O-])NCCO [Prestw-649]	1
COc1ccc(C(=O)C=Cc2cc(OC)c(OC)c(OC)c2)c(O)c1	0.794
CC(C)C(=O)c1c(C(C)C)nn2ccccc12	0.957

Could you report viability score for every entry in the following list?
1. O=C(NCCN1CCOCC1)c1ccc(F)cc1
2. O=[N+]([O-])c1ccccc1S(=O)(=O)NCc1ccc2c(c1)OCO2
3. O=C(Nc1nccs1)c1ccc2c(c1)C(=O)N(C1CCCCC1)C2=O
4. COc1ccc(CNC(=O)c2cnc3n(c2=O)CCS3)cc1
5. Cc1ccc(S(=O)(=O)n2c(C)nc3ccccc32)cc1
6. Cc1ccc(N2CC(C(=O)NCC3CCCO3)CC2=O)cc1 (stereo unspecified)
7. CCCC1=NN2C(=N)C(=Cc3ccc(OCc4ccc(F)cc4)c(OCC)c3)C(=O)N=C2S1
8. NC(=O)c1ccc(I)c([N+](=O)[O-])c1

Reply text:
1. 0.986
2. 1.03
3. 1
4. 1
5. 0.959
6. 1
7. 1.01
8. 0.981

----------
test system: RAW-Dual (murine macrophage reporter line); assay: IRF reporter (Lucia luciferase) activity fold change vs agonist alone; higher = enhanced IRF activity; settings: modulator concentration 10 µM; agonist: LPS 0.1 ug/mL
For each of the compounds below, state its IRF reporter.
Numbers only.

# annotated cases, reported IRF reporter shown
Compound	IRF reporter
CN(C)C1C(O)=C(C(N)=O)C(=O)C2(O)C(O)=C3C(=O)c4c(O)ccc(Cl)c4C(O)C3CC12.Cl (stereo not drawn)	1.19
Brc1ccc2[nH]cc(-c3nnc4ccc5ccccc5n34)c2c1	1.4
Cl.Fc1ccc(C2CCNCC2COc2ccc3c(c2)OCO3)cc1 (stereo not drawn)	1.05
O=C1CN(/N=C/c2ccc([N+](=O)[O-])o2)C(=O)N1	1.21
Cc1ccc(S(=O)(=O)N2CCN(C(C)C)CC2)cc1	0.898

Could you report IRF reporter for every entry in the following list?
1. CC1CC2(NC(=O)NC2=O)C(C)CN1C (stereo not drawn)
2. COc1ccc(C2NN(Cc3ccccc3)C3C(=O)N(C)C(=O)C23)cc1 (stereo not drawn)
3. O=C(CCc1ccc(F)c(Cl)c1)NCCn1nccn1

Reply text:
1: 1.34; 2: 1.33; 3: 1.21

Could you report IRF reporter for every entry in the following list?
1. CC(=O)c1cc2c(o1)C(=O)c1ccccc1C2=O
2. CC1(C)CCC2(C(=O)O)CCC3(C)C(=CCC4C5(C)CCC(O)C(C)(C)C5CCC43C)C2C1 (stereo not drawn)
3. COc1ccc(OC)c(S(=O)(=O)N2CCC(Oc3nc4c(C)cccc4s3)CC2)c1
4. CC(=O)Nc1ccc(O)cc1

Reply text:
1. 1.12
2. 1.3
3. 1.15
4. 0.938

Could you report IRF reporter for every entry in the following list?
1. O=S(=O)(NCCn1ccn2nccc12)c1ccccc1Br
2. CCn1cc(C(=O)NN)c(=O)c2cc(F)c(N3CCCCCC3)cc21

Reply text:
1: 1.14; 2: 1.29

----------
system: RAW-Dual (murine macrophage reporter line); assay: IRF reporter (Lucia luciferase) activity fold change vs agonist alone; higher = enhanced IRF activity; settings: modulator concentration 10 µM; agonist: LPS 0.1 ug/mL
For each of the molecules below, state its IRF reporter.
Numbers only.

# annotated cases, reported IRF reporter shown
Molecule	IRF reporter
CCC(c1ccc(O)cc1)C(CC)c1ccc(O)cc1 (stereo not given)	0.84
COC(C(=O)NNC(=O)c1ccccc1Cl)c1ccccc1 (stereo not given)	0.993
Cc1cccc(C(=O)N2N=C(C3CCCCC3)CC2(O)C(F)(F)F)c1O (stereo not given)	1.4

Could you report IRF reporter for every entry in the following list?
1. CCOC(N)=O
2. COc1ccccc1-c1cc(-c2ccccc2)nc(SCC(=O)c2cc3ccccc3oc2=O)c1C#N
3. CCN(CC)CCOC(=O)C(c1ccccc1)c1ccccc1.Cl
4. COc1ccc2ncc(S(=O)(=O)c3ccccc3)c(N3CCN(c4ccccc4)CC3)c2c1
5. CCCC1=NN(c2ccc([N+](=O)[O-])cc2)C(=O)C1=CNC1CC1

Reply text:
[1.32, 1.45, 1.29, 1.4, 1.49]

Could you report IRF reporter for every entry in the following list?
1. CC1(C)COC(=O)C1=NNc1ccc([N+](=O)[O-])cc1
2. COc1ccc(CN(CCN(C)C)c2ccccn2)cc1.O=C(O)/C=C\C(=O)O
3. Cc1ncsc1C(=O)N1CC(OCC(F)(F)F)C1
4. C=C1C(=O)O[C@@H]2[C@H]3O[C@]3(C)CC/C=C(\C)CC[C@@H]12
5. S=C(NCCN1CCCCC1)NCc1ccccc1

Reply text:
1.05
0.773
1.01
0.0437
1.33

Could you report IRF reporter for every entry in the following list?
1. CSCCC(NC(C)=O)C(=O)N1CCC(n2c(C)nc3ccccc32)C1 (stereo not given)
2. Fc1ccc(CN2CCc3c([nH]c4ccccc34)C2)cc1
3. CN(C)CCCN1c2ccccc2Sc2ccccc21.Cl
4. Cc1c(C(=O)OC(C)C)sc(NC(=O)C(F)(F)F)c1C(=O)OC(C)C
5. COc1ccc(CNCc2cccc3ccccc23)c(OC)c1
6. CC(Cc1ccc(O)c(O)c1)C(C)Cc1ccc(O)c(O)c1 (stereo not given)
7. O=C(CCCCCCNC(=O)c1cnc(N(c2ccccc2)c2ccccc2)nc1)NO
8. CCc1sc2sncc2c1Br

Reply text:
0.968
0.974
0.994
0.937
1.21
0.509
2.78
0.713
